# ASSAY TARGET: 5-LO (Homo sapiens, UniProt P09917)
# Construct: incubating a test compound with heparinised human blood, prior to challenge with the calcium ionophore A23187; endogenous in cells; host or cells: heparinised human whole blood (blood cells)
# Sequence (P09917 whole entry): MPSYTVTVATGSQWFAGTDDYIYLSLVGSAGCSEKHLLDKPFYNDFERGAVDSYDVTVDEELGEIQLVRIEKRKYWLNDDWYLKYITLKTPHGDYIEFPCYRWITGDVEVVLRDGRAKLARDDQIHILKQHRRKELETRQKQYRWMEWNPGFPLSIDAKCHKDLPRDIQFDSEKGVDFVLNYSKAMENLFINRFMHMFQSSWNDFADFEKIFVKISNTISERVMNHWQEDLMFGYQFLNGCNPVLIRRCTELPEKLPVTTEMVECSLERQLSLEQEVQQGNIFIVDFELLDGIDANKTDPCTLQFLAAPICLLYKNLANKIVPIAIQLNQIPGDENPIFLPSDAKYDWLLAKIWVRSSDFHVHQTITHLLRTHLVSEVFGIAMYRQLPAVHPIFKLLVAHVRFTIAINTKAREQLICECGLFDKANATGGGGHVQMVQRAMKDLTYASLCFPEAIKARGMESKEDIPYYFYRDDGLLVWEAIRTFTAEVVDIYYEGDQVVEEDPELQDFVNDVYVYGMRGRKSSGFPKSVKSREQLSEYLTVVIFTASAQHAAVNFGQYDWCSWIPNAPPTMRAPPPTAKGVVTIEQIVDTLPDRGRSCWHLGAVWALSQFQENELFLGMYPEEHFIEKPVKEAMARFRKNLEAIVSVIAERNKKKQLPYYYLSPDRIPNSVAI
# EXPERIMENTAL DETAILS: Test a): in vitro heparinised human blood challenged with calcium ionophore A23187, radioimmunoassay of LTB₄
# Type: cell-based
# CONDITION PARAMETERS: A23187 challenge, read-out: IC₅₀ against LTB₄ in test (a)
METRIC: IC50 (nM)

• C#CCN1CCC(OC)(c2cccc(OCc3ccc4ccccc4c3)c2)C1 (centres unmarked) [Example 4] = 60
• COC1(c2cc(F)cc(Sc3ccc4c(c3)CCC(=O)N4C)c2)CCN(CC(F)(F)F)C1 (centres unmarked) [Example 6] = 30
• COC1(c2cccc(OCc3ccc4ccccc4c3)c2)CCN(C)C1 (centres unmarked) [Example 1] = 210
• CCn1c(=O)ccc2cc(COc3cccc(C4(OC)CCN(CC(F)(F)F)C4)c3)ccc21 (centres unmarked) [Example 5] = 90
• COC1(c2cc(F)cc(Sc3ccc(C(C)=NO)cc3)c2)CCN(CC(F)(F)F)C1 (centres unmarked) [Example 32] = 40
